target: recombinant human 5-HT5A receptor (Homo sapiens); construct: expressed in transfected cells; host or cells: HEK-EBNA (Human Embryonic Kidney-EBNA) cells, transient cDNA expression; membranes; test: [3H]LSD radioligand binding assay; conditions: [3H]LSD (approximately 1 nM); membranes from transiently expressed 5-HT5A receptors in HEK-EBNA cells; Ki from IC50 by Cheng-Prussoff equation
Sequence (P47898 whole entry): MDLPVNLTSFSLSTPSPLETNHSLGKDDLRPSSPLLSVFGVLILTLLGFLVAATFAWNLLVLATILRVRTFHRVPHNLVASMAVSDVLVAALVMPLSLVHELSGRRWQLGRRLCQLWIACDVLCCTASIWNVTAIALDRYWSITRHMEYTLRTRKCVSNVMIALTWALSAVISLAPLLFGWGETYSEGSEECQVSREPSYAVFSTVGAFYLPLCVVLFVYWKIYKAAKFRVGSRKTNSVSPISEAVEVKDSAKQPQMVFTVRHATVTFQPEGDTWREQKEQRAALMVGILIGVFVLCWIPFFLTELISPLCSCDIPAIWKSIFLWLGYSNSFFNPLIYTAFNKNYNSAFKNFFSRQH
measuredQuantity: Ki (nM)
Quick reminder: number only, in nM, skip the unit.

Ki lookup needed for COc1cccc2c1C(Nc1ccc3cc(NS(=O)(=O)N4C[C@@H]5C[C@H]4CO5)ccc3n1)CCC2 (stereo partly shown) , thanks.
6.8

Quick one: O=C(Nc1ccc2nc(NC3CCc4cccc(F)c43)ccc2c1)C1CC1 (racemic)
8.3

Quick one: CC(C)NC(=O)Nc1ccc2nc(NC3CCc4cc(F)ccc43)ccc2c1 (racemic)
4.4

Quick one: COc1cccc2c1C(Nc1ccc3cc(NC(=O)C4CC4)ccc3n1)CO2 (racemic)
7.3
